Tested on: Plasmodium falciparum
experimental.protocol: Re-testing in dose-response curve in 3D7 pLDH assay, at 72h
Type: functional, organism-based
Set-up: timepoint 72 hour
experimental.setup: 3D7, Erythrocyte
pIC50: −log10 of the molar value.
measured.parameter: pIC50

Clc1ccc(Cn2cc(CNCCCn3ccnc3)c3ccccc32)c(Cl)c1    ~6.33
CN(C)Cc1ccc(NC(=O)c2cc(F)cc3c(=O)c4cc(F)ccc4[nH]c23)cc1    ~6.42
CCN1CCN(c2cccc(NC(=O)c3ccc4[nH]c5ccccc5c(=O)c4c3)c2)CC1    ~6.34
